Below: a set of entries, each annotated with reported CC50 at 48 h.
# test: Cytotoxicity assay (MTT)
# Format: cell-based, African green monkey (Cercopithecus aethiops)
# runConditions: African green monkey, free (not encapsulated), Vero cells

O=C1C(O)=C(C(NCc2ccccc2)c2ccc([N+](=O)[O-])cc2)C(=O)c2ccccc21 (stereo not shown) [compound 3] :: 17 µM
CCCCNC(C1=C(O)C(=O)c2ccccc2C1=O)c1ccc(Cl)cc1Cl (stereo not shown) [compound 1] :: 19 µM
Nc1nc2c(ncn2COCCO)c(=O)[nH]1 [Acyclovir, acyclovir, reference compound] :: 15 µM

Input line: Could you share which CC50 at 48 h value was measured for O=C1C(O)=C(C(NCc2ccccc2)c2ccc(Cl)cc2Cl)C(=O)c2ccccc21 (stereo not shown) [compound 2] ?
Output line: 22 µM
